These entries and their values trace back to ChEMBL document CHEMBL5096181.

# System: MCF7
# experiment.notes: Cytotoxicity against human MCF7 cells assessed as cell growth inhibition and measured after 72 hrs by SRB assay
# Type: functional, cell-based
# applied.conditions: MCF7, 72 h
pIC50: −log10 of the molar value.
Classify as follows. Reported pIC50 greater than or equal to 5: Criterion met. Reported pIC50 below: Criterion not met.

Below, 5 molecules whose answers are already recorded.
test.smiles: Cc1cc(COc2ccc(-c3cc(N4CCN(Cc5ccc(C(F)(F)F)cc5)CC4)no3)cc2)n(C)n1
label: Criterion met
--
test.smiles: O=S(=O)(Nc1ccc(-c2cn[nH]c2)cc1)c1ccc(Cl)cc1
label: Criterion not met
--
test.smiles: CS(=O)(=O)c1ccc(-c2cc(N3CCN(Cc4ccc(C(F)(F)F)cc4)CC3)no2)cc1
label: Criterion met
--
test.smiles: CCCOc1ccc(-c2cc(N3CCN(Cc4ccc(C(F)(F)F)cc4)CC3)no2)cc1
label: Criterion met
--
test.smiles: Cc1noc(C)c1COc1ccc(-c2cc(N3CCN(Cc4ccc(C(F)(F)F)cc4)CC3)no2)cc1
label: Criterion met

*Q* Textbook exercise: given the entry O=S(=O)(Nc1ccc(-c2cnoc2)cc1)c1ccc(Cl)cc1 , state whether its pIC50 is greater than or equal to 5.
*A* Criterion met

---

Can you tell me IC50 for the items I'm about to list?
# target.or.system: Tyrosine-protein phosphatase non-receptor type 1 (Homo sapiens)
# Sequence (P18031 whole entry): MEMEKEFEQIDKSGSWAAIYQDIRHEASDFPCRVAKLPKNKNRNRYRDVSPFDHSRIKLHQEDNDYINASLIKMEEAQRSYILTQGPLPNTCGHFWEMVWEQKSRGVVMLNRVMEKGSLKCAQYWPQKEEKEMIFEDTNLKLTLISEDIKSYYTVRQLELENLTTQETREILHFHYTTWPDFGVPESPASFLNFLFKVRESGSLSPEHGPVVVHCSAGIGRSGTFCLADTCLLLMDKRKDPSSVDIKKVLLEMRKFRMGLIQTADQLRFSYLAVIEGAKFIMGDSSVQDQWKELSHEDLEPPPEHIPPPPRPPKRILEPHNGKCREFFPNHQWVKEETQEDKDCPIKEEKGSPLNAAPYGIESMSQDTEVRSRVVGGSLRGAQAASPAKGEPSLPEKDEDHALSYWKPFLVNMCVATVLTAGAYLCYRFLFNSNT
Answers are plain numbers, in nM.

test.smiles: C[C@H](CCC(=O)O)[C@H]1CC[C@H]2[C@@H]3CC[C@@H]4C[C@H](O)CC[C@]4(C)[C@H]3CC[C@]12C
recorded.result: 2710

// next item, IC50 requested
*Q* Can you look up the measured IC50 of O=C(O)c1cccc(/C=C/c2ccc(Oc3cnoc3-c3ccccc3Cl)cc2)c1 for me?
*A* 1750

---

# target.or.system: Estrogen receptor (Homo sapiens)
# Sequence (P03372 whole entry): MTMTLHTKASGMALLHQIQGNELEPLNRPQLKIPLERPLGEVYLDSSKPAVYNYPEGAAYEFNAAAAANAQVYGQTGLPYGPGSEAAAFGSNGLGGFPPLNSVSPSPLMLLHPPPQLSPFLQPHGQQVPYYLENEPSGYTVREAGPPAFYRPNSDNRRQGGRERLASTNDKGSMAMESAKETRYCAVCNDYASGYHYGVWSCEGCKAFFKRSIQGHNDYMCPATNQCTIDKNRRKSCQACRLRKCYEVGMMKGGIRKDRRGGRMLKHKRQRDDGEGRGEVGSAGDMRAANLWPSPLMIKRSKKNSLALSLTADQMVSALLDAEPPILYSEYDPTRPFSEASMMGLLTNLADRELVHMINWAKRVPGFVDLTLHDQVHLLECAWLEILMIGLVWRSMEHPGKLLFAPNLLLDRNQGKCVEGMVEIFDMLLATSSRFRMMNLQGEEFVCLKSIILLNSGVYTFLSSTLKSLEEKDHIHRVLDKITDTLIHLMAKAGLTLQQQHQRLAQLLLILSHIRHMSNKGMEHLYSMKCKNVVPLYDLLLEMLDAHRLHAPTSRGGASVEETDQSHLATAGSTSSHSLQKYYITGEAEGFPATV
# experiment.notes: Inhibition of ERalpha (unknown origin) in MCF7 cells measured after 24 to 48 hrs by FRET assay
value.kind: pIC50
Give bare numbers, as −log10 of the molar value.

*Q* So what's the measured pIC50 for this one? COc1onc(-c2ccc(O)cc2)c1-c1oc2ccccc2c(=O)c1O
*A* 4.04
